# credit: the supplement of paper PMC8882468

Exercise: for every item that follows, state its recorded CTG-3D luminescence at 96 h.
# Tested on: HCI-001 (organoid from a triple-negative breast cancer xenograft)
# Assay Name: CTG-3D luminescence at 96 h relative to day-0 seeding control (ratio to day 0); higher = more growth / less cytotoxicity; PDxO 3D drug screen, 96 h, CTG-3D normalised to day-0 seeding control.
# Condition Summary: 12.5 pM; days in culture: 240
Give bare numbers.

Hello, I would appreciate it if you could give CTG-3D luminescence at 96 h for each entry below.
1. CC(=O)O[C@H]1C(=O)[C@@]2(C)[C@H]([C@H](OC(=O)c3ccccc3)[C@]3(O)C[C@H](OC(=O)[C@H](O)[C@@H](NC(=O)c4ccccc4)c4ccccc4)C(C)=C1C3(C)C)[C@]1(OC(C)=O)CO[C@@H]1C[C@@H]2O [paclitaxel]
2. C=CCn1c(=O)c2cnc(Nc3ccc(N4CCN(C)CC4)cc3)nc2n1-c1cccc(C(C)(C)O)n1 [adavosertib]
3. CCN1CCN(Cc2ccc(Nc3ncc(F)c(-c4cc(F)c5nc(C)n(C(C)C)c5c4)n3)nc2)CC1 [abemaciclib]
4. NC(=O)c1cccc2cn(-c3ccc([C@@H]4CCCNC4)cc3)nc12 [niraparib]
5. COc1cccc2c1C(=O)c1c(O)c3c(c(O)c1C2=O)C[C@@](O)(C(=O)CO)C[C@@H]3O[C@H]1C[C@H](N)[C@H](O)[C@H](C)O1 [doxorubicin]
6. NC1(C(=O)N[C@@H](CCO)c2ccc(Cl)cc2)CCN(c2nc[nH]c3nccc2-3)CC1 [capivasertib]

Ans.
[1.49, 1.67, 1.34, 1.8, 1.83, 1.55]
